Can you tell me gamma-GTP for the items I'm about to list?
- Organism: Rattus norvegicus
- measurement-description: Open TG-GATES - Regimen: Daily Repeat
- Format: toxicity, organism-based, Sprague-Dawley
- Design: regimen Daily Repeat, gender Male, age 6 weeks
- applied-conditions: in vivo, po, 0 mg/kg, […], tissue Plasma, route gavage, dose level Control, time 28 day
Quick reminder: number only, in IU/L, skip the unit.

input: Given CCOC(=O)CCC(=O)O[C@H]1[C@H](O[C@@H]2[C@@H](C)[C@H](O[C@H]3C[C@@](C)(OC)[C@@H](O)[C@H](C)O3)[C@@H](C)C(=O)O[C@H](CC)[C@@](C)(O)[C@H](O)[C@@H](C)C(=O)[C@H](C)C[C@@]2(C)O)O[C@H](C)C[C@@H]1N(C)C [ERYTHROMYCIN ETHYLSUCCINATE] , state its recorded gamma-GTP.
output: 2.8

input: Given CCOc1ccc(NC(=O)CC(C)O)cc1 (stereo not drawn) , state its recorded gamma-GTP.
output: 2

input: Given CC(C)OC(=O)C(C)(C)Oc1ccc(C(=O)c2ccc(Cl)cc2)cc1 [FENOFIBRATE] , state its recorded gamma-GTP.
output: 1.2

###

- Organism: Rattus norvegicus
- measurement-description: Open TG-GATES - Regimen: Single
- Format: toxicity, organism-based, Sprague-Dawley
- Set-up: regimen Single, gender Male, age 6 weeks
- applied-conditions: in vivo, po, 100 mg/kg, 9 h, tissue Blood, route gavage, dose level High
Can you tell me MCV for the items I'm about to list?
State the value with its unit after it.

input: Given `CC1=C(/C=C/C(C)=C/C=C/C(C)=C/CO)C(C)(C)CCC1` , state its recorded MCV.
output: 61.4 fL

input: Given `CN(C)CCCN1c2ccccc2CCc2ccc(Cl)cc21` , state its recorded MCV.
output: 65.1 fL

input: Given `CN(C)CCCN1c2ccccc2CCc2ccccc21` , state its recorded MCV.
output: 66.8 fL

input: Given `CN(C)CCN(Cc1cccs1)c1ccccn1` , state its recorded MCV.
output: 63.5 fL

###

- Organism: Rattus norvegicus
- measurement-description: Open TG-GATES - Regimen: Daily Repeat
- Type: toxicity, organism-based, Sprague-Dawley
- Design: regimen Daily Repeat, gender Male, age 6 weeks
- applied-conditions: in vivo, po, 0 mg/kg, […], tissue Plasma, route gavage, dose level Control, time 7 day
Decision: AST beneath 70 IU/L gives yes (1); AST meeting or exceeding 70 IU/L gives no (0).

input: In the record for `CN(C)CCCN1c2ccccc2CCc2ccccc21` , is AST less than 70 IU/L?
output: yes (1)

input: In the record for `NNC(=O)c1ccncc1` , is AST less than 70 IU/L?
output: yes (1)

input: In the record for CCOc1ccc(NC(=O)CC(C)O)cc1 (stereo not drawn) , is AST less than 70 IU/L?
output: yes (1)

input: In the record for CC(C)OC(=O)C(C)(C)Oc1ccc(C(=O)c2ccc(Cl)cc2)cc1 [FENOFIBRATE] , is AST less than 70 IU/L?
output: no (0)

input: In the record for `CC1=C(/C=C/C(C)=C/C=C/C(C)=C/CO)C(C)(C)CCC1` , is AST less than 70 IU/L?
output: yes (1)

input: In the record for CCOC(=O)CCC(=O)O[C@H]1[C@H](O[C@@H]2[C@@H](C)[C@H](O[C@H]3C[C@@](C)(OC)[C@@H](O)[C@H](C)O3)[C@@H](C)C(=O)O[C@H](CC)[C@@](C)(O)[C@H](O)[C@@H](C)C(=O)[C@H](C)C[C@@]2(C)O)O[C@H](C)C[C@@H]1N(C)C [ERYTHROMYCIN ETHYLSUCCINATE] , is AST less than 70 IU/L?
output: no (0)

input: In the record for `CN1C(=O)CN=C(c2ccccc2)c2cc(Cl)ccc21` , is AST less than 70 IU/L?
output: yes (1)

###

- Species: Rattus norvegicus
- measurement-description: Open TG-GATES - Regimen: Single
- Type: toxicity, organism-based, Sprague-Dawley
- Design: regimen Single, gender Male, age 6 weeks
- applied-conditions: in vivo, po, 10 mg/kg, 6 h, tissue Plasma, route gavage, dose level Low
Can you tell me gamma-GTP for the items I'm about to list?
Quick reminder: number only, in IU/L, skip the unit.

input: Given CC1=C(/C=C/C(C)=C/C=C/C(C)=C/CO)C(C)(C)CCC1 [RETINOL] , state its recorded gamma-GTP.
output: 0.8

input: Given CC(C)OC(=O)C(C)(C)Oc1ccc(C(=O)c2ccc(Cl)cc2)cc1 [FENOFIBRATE] , state its recorded gamma-GTP.
output: 1.4

input: Given CN(C)CCCN1c2ccccc2CCc2ccccc21 [IMIPRAMINE] , state its recorded gamma-GTP.
output: 1

input: Given `CN(C)CCN(Cc1cccs1)c1ccccn1` , state its recorded gamma-GTP.
output: 1

input: Given CN(C)CCCN1c2ccccc2CCc2ccc(Cl)cc21 [CLOMIPRAMINE] , state its recorded gamma-GTP.
output: 1.4

###

- Organism: Rattus norvegicus
- measurement-description: Open TG-GATES - Regimen: Daily Repeat
- Assay type: toxicity, organism-based, Sprague-Dawley
- Parameters: regimen Daily Repeat, gender Male, age 6 weeks
- applied-conditions: in vivo, po, 1000 mg/kg, […], tissue Blood, route gavage, dose level High, time 28 day
property-measured: Plat
State the value with its unit after it.

input: Given CCOc1ccc(NC(=O)CC(C)O)cc1 (stereo unspecified) , state its recorded Plat.
output: 102.2 x10_4/uL

input: Given `NC(N)=Nc1nc(CSCCC(N)=NS(N)(=O)=O)cs1` , state its recorded Plat.
output: 100.2 x10_4/uL

input: Given COc1ccc2[nH]c([S+]([O-])Cc3ncc(C)c(OC)c3C)nc2c1 (stereo unspecified) , state its recorded Plat.
output: 124 x10_4/uL

input: Given `COC1=CC(=O)C[C@@H](C)[C@]12Oc1c(Cl)c(OC)cc(OC)c1C2=O` , state its recorded Plat.
output: 113.5 x10_4/uL

input: Given CC(C)OC(=O)C(C)(C)Oc1ccc(C(=O)c2ccc(Cl)cc2)cc1 [FENOFIBRATE] , state its recorded Plat.
output: 117.4 x10_4/uL

input: Given CCOC(=O)CCC(=O)O[C@H]1[C@H](O[C@@H]2[C@@H](C)[C@H](O[C@H]3C[C@@](C)(OC)[C@@H](O)[C@H](C)O3)[C@@H](C)C(=O)O[C@H](CC)[C@@](C)(O)[C@H](O)[C@@H](C)C(=O)[C@H](C)C[C@@]2(C)O)O[C@H](C)C[C@@H]1N(C)C [ERYTHROMYCIN ETHYLSUCCINATE] , state its recorded Plat.
output: 102.9 x10_4/uL

###

Can you tell me IP for the items I'm about to list?
- Species on record: Rattus norvegicus
- measurement-description: Open TG-GATES - Regimen: Single
- Assay type: toxicity, organism-based, Sprague-Dawley
- Parameters: regimen Single, gender Male, age 6 weeks
- applied-conditions: in vivo, po, 1000 mg/kg, 24 h, tissue Plasma, route gavage, dose level High
Quick reminder: number only, in mg/dL, skip the unit.

input: Given CCOC(=O)CCC(=O)O[C@H]1[C@H](O[C@@H]2[C@@H](C)[C@H](O[C@H]3C[C@@](C)(OC)[C@@H](O)[C@H](C)O3)[C@@H](C)C(=O)O[C@H](CC)[C@@](C)(O)[C@H](O)[C@@H](C)C(=O)[C@H](C)C[C@@]2(C)O)O[C@H](C)C[C@@H]1N(C)C [ERYTHROMYCIN ETHYLSUCCINATE] , state its recorded IP.
output: 9

input: Given NC(N)=Nc1nc(CSCCC(N)=NS(N)(=O)=O)cs1 [FAMOTIDINE] , state its recorded IP.
output: 8.2

input: Given COC1=CC(=O)C[C@@H](C)[C@]12Oc1c(Cl)c(OC)cc(OC)c1C2=O [GRISEOFULVIN] , state its recorded IP.
output: 8.5

input: Given COc1ccc2[nH]c([S+]([O-])Cc3ncc(C)c(OC)c3C)nc2c1 (stereo not given) [OMEPRAZOLE] , state its recorded IP.
output: 9.2

input: Given CC(C)OC(=O)C(C)(C)Oc1ccc(C(=O)c2ccc(Cl)cc2)cc1 [FENOFIBRATE] , state its recorded IP.
output: 8.7

###

- Organism: Rattus norvegicus
- measurement-description: Open TG-GATES - Regimen: Single
- Assay type: toxicity, organism-based, Sprague-Dawley
- Design: regimen Single, gender Male, age 6 weeks
- applied-conditions: in vivo, po, 100 mg/kg, 24 h, tissue Plasma, route gavage, dose level Low
Can you tell me ALP for the items I'm about to list?
Quick reminder: number only, in IU/L, skip the unit.

input: Given COc1ccc2[nH]c([S+]([O-])Cc3ncc(C)c(OC)c3C)nc2c1 (centres undefined) , state its recorded ALP.
output: 851.2

input: Given `COC1=CC(=O)C[C@@H](C)[C@]12Oc1c(Cl)c(OC)cc(OC)c1C2=O` , state its recorded ALP.
output: 926.8

input: Given CCOC(=O)CCC(=O)O[C@H]1[C@H](O[C@@H]2[C@@H](C)[C@H](O[C@H]3C[C@@](C)(OC)[C@@H](O)[C@H](C)O3)[C@@H](C)C(=O)O[C@H](CC)[C@@](C)(O)[C@H](O)[C@@H](C)C(=O)[C@H](C)C[C@@]2(C)O)O[C@H](C)C[C@@H]1N(C)C [ERYTHROMYCIN ETHYLSUCCINATE] , state its recorded ALP.
output: 1407.8

input: Given `NC(N)=Nc1nc(CSCCC(N)=NS(N)(=O)=O)cs1` , state its recorded ALP.
output: 990

All values here come from ChEMBL document CHEMBL3885861.
